Test system: c-Abl (mouse)
Assay: phosphorylation enrichment, bacterial display (enrichment ratio); higher = better substrate or ligand; peptides without Tyr show the background
Assignment: determine reported phosphorylation enrichment for the given sequences.
Write no unit; give the number alone.

## Task Give recorded phosphorylation enrichment. RMDGKYACSFT [FLNB_Y704_T703K_YF]
## Result 0.902

## Task Give recorded phosphorylation enrichment. SVVVPHEPPEV [TP53_Y220_Y220H]
## Result 0.703

## Task Give recorded phosphorylation enrichment. STEAIYWRFSK [SH3PXD2B_Y42_R43W_YF]
## Result 7.78

## Task Give recorded phosphorylation enrichment. FLAVGYHKTHI [IDS_Y225_P228T]
## Result 0.638

## Task Give recorded phosphorylation enrichment. QMVDMYASSFM [AVPR2_Y124_G122D_YF]
## Result 1.2

## Task Give recorded phosphorylation enrichment. LNPLVYTLRNA [OR4C12_Y285_V283L]
## Result 1.19

## Task Give recorded phosphorylation enrichment. EESSHYSTEKE [ADAR_Y587]
## Result 0.604

## Task Give recorded phosphorylation enrichment. GNFSGYDDAWD [POLR1C_Y36_YF]
## Result 1.03

## Task Give recorded phosphorylation enrichment. FSSLGYPPPEG [ZSWIM4_Y87_YF]
## Result 0.593

## Task Give recorded phosphorylation enrichment. VGNPAYRSFSN [IL4R_Y497_A492V]
## Result 0.478

## Task Give recorded phosphorylation enrichment. TSSGGYRRTPS [ABI1_Y333]
## Result 0.486

## Task Give recorded phosphorylation enrichment. PEADKYCLTFA [FGG_Y300_R301C_YF]
## Result 1.32

## Task Give recorded phosphorylation enrichment. CTTIHYNYMYN [TP53_Y234_C238Y]
## Result 0.684

###

Assignment: determine reported SH2 binding enrichment for the given sequences.
Biological target: c-Src SH2;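 further: peptide library displayed on the E. coli surface as eCPX fusions, selected cells deep-sequenced, score is each peptide's frequency after selection divided by its frequency in the input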
Assay: SH2 binding enrichment of the phosphorylated peptide, bacterial display (enrichment ratio); higher = better substrate or ligand; peptides without Tyr show the background
Write no unit; give the number alone.

## Task Give recorded SH2 binding enrichment. FLNSIYKSRDE [ROS1_Y2227]
## Result 0.612

## Task Give recorded SH2 binding enrichment. ELPEKYSQNIF [PKP2_Y626_YF]
## Result 0.614

## Task Give recorded SH2 binding enrichment. PRLLRYLQLDF [ASB10_Y457]
## Result 1.11

## Task Give recorded SH2 binding enrichment. TVDASYFGGRG [ANTXR2_Y380_YF]
## Result 0.474

## Task Give recorded SH2 binding enrichment. KVGNEYVTKGQ [MYH7_Y410]
## Result 0.471

## Task Give recorded SH2 binding enrichment. AKIDGYITSFR
## Result 0.625

## Task Give recorded SH2 binding enrichment. YSMGCYEIYLG [HMGCL_Y198_S201Y]
## Result 0.627

## Task Give recorded SH2 binding enrichment. MRTMGYMPREM [CABP5_Y62_T65R]
## Result 0.48

## Task Give recorded SH2 binding enrichment. SREALYNETDP [CACNA1A_Y794_M797T]
## Result 0.764

## Task Give recorded SH2 binding enrichment. GVASDYKCVDP [VPS13B_Y1991_I1994V]
## Result 0.622

## Task Give recorded SH2 binding enrichment. PARLEYCENEK [IRS1_Y46_Y47C]
## Result 1.26

## Task Give recorded SH2 binding enrichment. ENFSEYQEIAV [HEMGN_Y150]
## Result 0.627

## Task Give recorded SH2 binding enrichment. CNPLRYPTIMI [OR6K6_Y160]
## Result 0.458

## Task Give recorded SH2 binding enrichment. RRIHSYRGHLC [VHL_Y112_W117C]
## Result 0.534

## Task Give recorded SH2 binding enrichment. PEACDYGLGGG [GSTO1_Y239]
## Result 0.693

## Task Give recorded SH2 binding enrichment. AVLSLYASGCT [ACTA2_Y145_R149C]
## Result 0.379

## Task Give recorded SH2 binding enrichment. GNFSGYDDAWD [POLR1C_Y36_YF]
## Result 4.46

## Task Give recorded SH2 binding enrichment. GPGGDYAAMGA [ERBB3_Y1276]
## Result 1.09

## Task Give recorded SH2 binding enrichment. LSGFGYRLSDQ [PDCD6_Y124]
## Result 0.545

## Task Give recorded SH2 binding enrichment. SQKRKYIEIDS [SDAD1_Y580]
## Result 2.09

## Task Give recorded SH2 binding enrichment. GIMEEYQLPFF [BMPR1A_Y453_V450M_YF]
## Result 0.49

## Task Give recorded SH2 binding enrichment. GFEVVYMTEPI [HSP90AB1_Y512]
## Result 0.605

## Task Give recorded SH2 binding enrichment. TEQDPYNNIVR [MMUT_Y364]
## Result 1.28

## Task Give recorded SH2 binding enrichment. RTVPLYESPRK [DDB1_Y718]
## Result 0.57

## Task Give recorded SH2 binding enrichment. GLAKEYTDPET [CSNK1G2_Y195_I196T]
## Result 1.1

## Task Give recorded SH2 binding enrichment. CTTFHYNFMCN [TP53_Y234_I232F_YF]
## Result 2.14

## Task Give recorded SH2 binding enrichment. LAVNPYGPPDL
## Result 0.515

## Task Give recorded SH2 binding enrichment. HICTAYELVLA [DHCR24_Y190]
## Result 0.573

## Task Give recorded SH2 binding enrichment. HYPDVYAREQL [ALX3_Y181]
## Result 0.564

## Task Give recorded SH2 binding enrichment. THEVRYISAGQ [SLCO4A1_Y77_V78I]
## Result 0.495

###

Assignment: determine reported phosphorylation enrichment for the given sequences.
Biological target: Hck (UniProt P08631)
Sequence (P08631 whole entry, looked up): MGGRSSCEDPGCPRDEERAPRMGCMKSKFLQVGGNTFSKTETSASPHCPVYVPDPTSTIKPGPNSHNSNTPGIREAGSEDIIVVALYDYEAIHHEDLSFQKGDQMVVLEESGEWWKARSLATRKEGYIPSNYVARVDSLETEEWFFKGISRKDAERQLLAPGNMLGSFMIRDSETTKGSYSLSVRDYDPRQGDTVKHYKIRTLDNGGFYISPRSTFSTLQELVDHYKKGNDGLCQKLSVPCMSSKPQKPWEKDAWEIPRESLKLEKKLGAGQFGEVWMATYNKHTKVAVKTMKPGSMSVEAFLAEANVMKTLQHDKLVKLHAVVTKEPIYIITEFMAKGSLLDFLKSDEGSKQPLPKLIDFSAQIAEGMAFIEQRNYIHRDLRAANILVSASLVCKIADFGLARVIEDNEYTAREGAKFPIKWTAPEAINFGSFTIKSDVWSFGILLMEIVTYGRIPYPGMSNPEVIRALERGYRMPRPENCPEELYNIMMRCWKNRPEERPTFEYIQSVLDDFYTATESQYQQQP
Experiment: phosphorylation enrichment, bacterial display (enrichment ratio); higher = better substrate or ligand; peptides without Tyr show the background
Write no unit; give the number alone.

## Task Give recorded phosphorylation enrichment. KPNMNYDKLSW [FLI1_Y332_R337W]
## Result 0.661

## Task Give recorded phosphorylation enrichment. GGPAGYLRRAS [PKLR_Y38]
## Result 0.458

## Task Give recorded phosphorylation enrichment. WEQELYSQLVF [WAS_Y102_YF]
## Result 7.88

## Task Give recorded phosphorylation enrichment. FSQNIYIQNRN [PKP2_Y631_YF]
## Result 0.589

## Task Give recorded phosphorylation enrichment. DGYTDYAEFAK [MCFD2_Y138_I136T]
## Result 0.74

## Task Give recorded phosphorylation enrichment. LAEMNYVHQDL [EPHB1_Y740_R743Q]
## Result 0.51

## Task Give recorded phosphorylation enrichment. YETSHYPASPD [CTNND2_Y1217]
## Result 0.421

## Task Give recorded phosphorylation enrichment. RKEAQYMLENE [SLC16A6_Y224]
## Result 0.803

## Task Give recorded phosphorylation enrichment. KKMKRYHVGKV [HARS2_Y151]
## Result 0.341

## Task Give recorded phosphorylation enrichment. KAPVDYIRKLQ [MITF_Y360_S357P]
## Result 0.346

## Task Give recorded phosphorylation enrichment. KLFFHYNPKLC [INSR_Y457]
## Result 0.562

## Task Give recorded phosphorylation enrichment. PSARTYCYKQE [KLHDC9_Y175]
## Result 0.506

## Task Give recorded phosphorylation enrichment. ENFSEYQEISV [HEMGN_Y150_A154S]
## Result 0.987

## Task Give recorded phosphorylation enrichment. GDFFRYLAEVA [YWHAG_Y133_YF]
## Result 0.477

## Task Give recorded phosphorylation enrichment. LKRCQYVTEKV [ALDOA_Y204]
## Result 0.689

## Task Give recorded phosphorylation enrichment. HYGNNYTDVLQ [MACC1_Y803_R804T]
## Result 1.12

## Task Give recorded phosphorylation enrichment. QPGDICHQTWA [GBA_Y244_Y244C]
## Result 0.337

## Task Give recorded phosphorylation enrichment. TTGLIYIGSHD [AASDH_Y870]
## Result 0.46

## Task Give recorded phosphorylation enrichment. SWVVPYEPPEV [TP53_Y220_V216W]
## Result 0.542

## Task Give recorded phosphorylation enrichment. KGKLIYLLGDS [NXPE1_Y350]
## Result 0.478

## Task Give recorded phosphorylation enrichment. FLAVGYHKPFI [IDS_Y225_H229Y_YF]
## Result 0.456

## Task Give recorded phosphorylation enrichment. ASMAKYFASGI [ACADSB_Y372_E376G_YF]
## Result 0.404

## Task Give recorded phosphorylation enrichment. WKEIEYEVVPD [CPS1_Y634_R638P]
## Result 0.559

## Task Give recorded phosphorylation enrichment. ISKKHYAGLLF [POLD1_Y809_R808H]
## Result 0.46

## Task Give recorded phosphorylation enrichment. RFLERDIYNRE [HLA-DPB1_Y57_Y57D]
## Result 10.7

## Task Give recorded phosphorylation enrichment. LLLLFCVVRYC [MPZ_Y177_Y177C]
## Result 2.16

## Task Give recorded phosphorylation enrichment. SLLTDYSPQLQ [OTC_Y345]
## Result 0.48

## Task Give recorded phosphorylation enrichment. STTIHYNYMCN [TP53_Y234_C229S]
## Result 0.543

## Task Give recorded phosphorylation enrichment. VDDEIYYFRKP [PBRM1_Y1289]
## Result 8.76
